Tested on: OVCAR-5 complex spheroid (HUVEC/MSC), viability % T/C
assay: Anticancer human tumor OVCAR-5 cell line growth inhibition [Asc];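 further: spheroids exposed to agents for 7 days before readout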;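 on viability, T/C: 100% = DMSO vehicle-treated wells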
conditionDescription: second compound 0.316 µM; first compound 0.0949 µM; stronger effect = lower value

>  <compound>
CCN1C(C(=O)NC23CCC(C(=O)O)(CC2)CC3)C(c2cccc(Cl)c2F)C2(C(=O)Nc3cc(Cl)ccc32)C12CCCCC2 (stereo not drawn) + Cc1c(S(C)(=O)=O)c(-c2cc(F)cc(N3CCN(c4ccc(NS(=O)(=O)c5ccc(NC(CCN6CCC(C(=O)OCCCP(=O)(O)O)CC6)CSc6ccccc6)c(S(=O)(=O)C(F)(F)F)c5)cc4)CC3)c2)c(-c2ccc(Cl)cc2)n1C(C)C

>  <testedTarget>
OVCAR-5 complex spheroid (HUVEC/MSC), viability % T/C

>  <unitLabel>
%

>  <viability, T/C>
90.2

$$$$
>  <compound>
CCN1C(C(=O)NC23CCC(C(=O)O)(CC2)CC3)C(c2cccc(Cl)c2F)C2(C(=O)Nc3cc(Cl)ccc32)C12CCCCC2 (stereo not drawn) + CNC(C)C(=O)NC1CN(S(=O)(=O)c2cccc(S(=O)(=O)N3CCC4CCC(C(=O)NC(c5ccccc5)c5ccccc5)N4C(=O)C(NC(=O)C(C)NC)C3)c2)CCC2CCC(C(=O)NC(c3ccccc3)c3ccccc3)N2C1=O

>  <testedTarget>
OVCAR-5 complex spheroid (HUVEC/MSC), viability % T/C

>  <unitLabel>
%

>  <viability, T/C>
79

$$$$
>  <compound>
Cc1nc(N2CCC3(CC2)COC(C)C3N)c(CO)nc1Sc1ccnc(N)c1Cl (stereo not drawn) + CNC(C)C(=O)NC1CN(S(=O)(=O)c2cccc(S(=O)(=O)N3CCC4CCC(C(=O)NC(c5ccccc5)c5ccccc5)N4C(=O)C(NC(=O)C(C)NC)C3)c2)CCC2CCC(C(=O)NC(c3ccccc3)c3ccccc3)N2C1=O

>  <testedTarget>
OVCAR-5 complex spheroid (HUVEC/MSC), viability % T/C

>  <unitLabel>
%

>  <viability, T/C>
64.4

$$$$

* * *

System: OVCAR-5 complex spheroid (HUVEC/MSC), viability % T/C
assay: Anticancer human tumor OVCAR-5 cell line growth inhibition [Asc];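 further: spheroids exposed to agents for 7 days before readout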
conditionDescription: curve of first compound; second compound 0.1 µM
reportedProperty: IC50

>  <compound>
C#Cc1c(F)ccc2cc(O)cc(-c3ncc4c(N5CC6CCC(C5)N6)nc(OCC56CCCN5CC(F)C6)nc4c3F)c12 (stereo not drawn) + CNC(C)C(=O)NC1CN(S(=O)(=O)c2cccc(S(=O)(=O)N3CCC4CCC(C(=O)NC(c5ccccc5)c5ccccc5)N4C(=O)C(NC(=O)C(C)NC)C3)c2)CCC2CCC(C(=O)NC(c3ccccc3)c3ccccc3)N2C1=O

>  <recordedMeasurement>
5.08 µM

$$$$
>  <compound>
NC1CCC(NC2CC2c2ccccc2)CC1 (stereo not drawn) + CNC(C)C(=O)NC1CN(S(=O)(=O)c2cccc(S(=O)(=O)N3CCC4CCC(C(=O)NC(c5ccccc5)c5ccccc5)N4C(=O)C(NC(=O)C(C)NC)C3)c2)CCC2CCC(C(=O)NC(c3ccccc3)c3ccccc3)N2C1=O

>  <recordedMeasurement>
> 0.1 µM

$$$$
>  <compound>
CCN1CCN(Cc2ccc(Nc3ncc(F)c(-c4cc(F)c5nc(C)n(C(C)C)c5c4)n3)nc2)CC1 + CNC(C)C(=O)NC1CN(S(=O)(=O)c2cccc(S(=O)(=O)N3CCC4CCC(C(=O)NC(c5ccccc5)c5ccccc5)N4C(=O)C(NC(=O)C(C)NC)C3)c2)CCC2CCC(C(=O)NC(c3ccccc3)c3ccccc3)N2C1=O

>  <recordedMeasurement>
> 1 µM

$$$$
